All figures here come from patent US20220227763A1.

Consider the following molecules and their measured melting point readings.

Molecule	Result
CCCCCNC(=O)c1nc(Nc2cc(F)nc(F)c2)cc2cc[nH]c12	220 to 233 °C
CC1(C)CCC1NC(=O)c1nc(Nc2cc(F)nc(F)c2)cc2cc[nH]c12 (centres unmarked)	115 to 148 °C
O=C(NC1CCC12CCCC2)c1nc(Nc2cncc(F)c2)cc2cn[nH]c12 (centres unmarked)	185 to 195 °C
Cn1cc(Nc2cc3cn[nH]c3c(C(=O)NC3CCC3(C)C)n2)cn1 (centres unmarked)	158 to 166 °C
CC1(C)CCC1NC(=O)c1nc(Nc2cnsc2)cc2cn[nH]c12 (centres unmarked)	158 to 166 °C

Qu. // lookup melting point for CC1(C)CCC1NC(=O)c1nc(Nc2ccnc(F)c2)cc2cn[nH]c12 (centres unmarked)
Ans. 222 to 238 °C

---

Entries and their melting point

Compound	melting point
CC1(C)CCC1NC(=O)c1nc(Nc2cc(F)cc(F)c2)cc2cn[nH]c12 (centres unmarked)	167 to 176 °C
CC1(C)CCC1NC(=O)c1nc(Nc2cc(F)cc(F)c2)cc2cc[nH]c12 (centres unmarked)	65 to 89 °C
CC1(C)CCC1NC(=O)c1nc(Nc2cc(F)nc(F)c2)cc2cn[nH]c12 (centres unmarked)	240 to 250 °C
CCCCCNC(=O)c1nc(Nc2cncc(F)c2)cc2cn[nH]c12	155 to 168 °C
O=C(NC1CCC12CCCC2)c1nc(Nc2cncc(F)c2)cc2cc[nH]c12 (centres unmarked)	180 to 191 °C
O=C(NC1CCC12CCCC2)c1nc(Nc2cc(F)nc(F)c2)cc2cc[nH]c12 (centres unmarked)	170 to 178 °C
CCCCCNC(=O)c1nc(Nc2cncc(F)c2)cc2cc[nH]c12	158 to 162 °C

From here, focus on the item given below.
Qu. Reported melting point, compound O=C(NC1CCC12CCCC2)c1nc(Nc2cc(F)nc(F)c2)cc2cn[nH]c12 (centres unmarked) : ____
Ans. 168 to 180 °C
